MFI at 33.3 nM overview
target.entity: PD-L1 (human)
Sequence (chain, as listed by the source): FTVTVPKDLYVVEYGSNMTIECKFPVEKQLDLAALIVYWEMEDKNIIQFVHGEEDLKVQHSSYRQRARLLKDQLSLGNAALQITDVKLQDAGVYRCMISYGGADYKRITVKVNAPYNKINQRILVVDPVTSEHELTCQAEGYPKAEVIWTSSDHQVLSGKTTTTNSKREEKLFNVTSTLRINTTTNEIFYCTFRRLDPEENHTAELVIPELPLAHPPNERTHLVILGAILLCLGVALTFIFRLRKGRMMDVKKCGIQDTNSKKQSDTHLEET
test.method.notes: flow cytometry, CHO cells stably expressing PD-L1
The figure you give is taken to be in MFI; do not add the unit.

INSERT INTO results (binder, measure, readout_value) VALUES
  ('CD80 variant H18Y/E35D/V68M/L97Q IgV-Fc (Fc fusion) VIHVTKEVKEVATLSCGYNVSVEELAQTRIYWQKDKKMVLTMMSGDMNIWPEYKNRTIFDITNNLSIMILALRPSDEGTYECVVLKYEKDAFKREHQAEVT', 'MFI at 33.3 nM', 122000),
  ('CD80 variant Q33L/E35D/N48K/L85Q/L97Q IgV-Fc (Fc fusion) VIHVTKEVKEVATLSCGHNVSVEELAQTRIYWLKDKKMVLTMMSGDMKIWPEYKNRTIFDITNNLSIVILALRPSDEGTYECVVQKYEKDAFKREHQAEVT', 'MFI at 33.3 nM', 45200),
  ('CD80 variant H18L/V22A/E35D/M47L/N48T/L85Q IgV-Fc (Fc fusion) VIHVTKEVKEVATLSCGLNVSAEELAQTRIYWQKDKKMVLTMMSGDLTIWPEYKNRTIFDITNNLSIVILALRPSDEGTYECVVQKYEKDAFKREHLAEVT', 'MFI at 33.3 nM', 98100),
  ('CD80 variant E7D/E35D/M47I/L97Q IgV-Fc (Fc fusion) VIHVTKDVKEVATLSCGHNVSVEELAQTRIYWQKDKKMVLTMMSGDINIWPEYKNRTIFDITNNLSIVILALRPSDEGTYECVVLKYEKDAFKREHQAEVT', 'MFI at 33.3 nM', 14600),
  ('CD80 variant V22A/E35D/V68E/A71D IgV-Fc (Fc fusion) VIHVTKEVKEVATLSCGHNVSAEELAQTRIYWQKDKKMVLTMMSGDMNIWPEYKNRTIFDITNNLSIEILDLRPSDEGTYECVVLKYEKDAFKREHLAEVT', 'MFI at 33.3 nM', 1350),
  ('CD80 variant E35D/M47L/L85Q IgV-Fc (Fc fusion) VIHVTKEVKEVATLSCGHNVSVEELAQTRIYWQKDKKMVLTMMSGDLNIWPEYKNRTIFDITNNLSIVILALRPSDEGTYECVVQKYEKDAFKREHLAEVT', 'MFI at 33.3 nM', 33200),
  ('CD80 variant A26E/Q33L/E35D/M47L/L85Q IgV-Fc (Fc fusion) VIHVTKEVKEVATLSCGHNVSVEELEQTRIYWLKDKKMVLTMMSGDLNIWPEYKNRTIFDITNNLSIVILALRPSDEGTYECVVQKYEKDAFKREHLAEVT', 'MFI at 33.3 nM', 62700),
  ('CD80 variant V22A/R29H/E35D/D46E/M47I IgV-Fc (Fc fusion) VIHVTKEVKEVATLSCGHNVSAEELAQTHIYWQKDKKMVLTMMSGEINIWPEYKNRTIFDITNNLSIVILALRPSDEGTYECVVLKYEKDAFKREHLAEVT', 'MFI at 33.3 nM', 25400);

Now, please, on to the next binder.
What value of MFI at 33.3 nM has been recorded for this entry: CD80 variant V22A/E23D/Q33L/E35D/M47V IgV-Fc (Fc fusion) VIHVTKEVKEVATLSCGHNVSADELAQTRIYWLKDKKMVLTMMSGDVNIWPEYKNRTIFDITNNLSIVILALRPSDEGTYECVVLKYEKDAFKREHLAEVT 75500
